System: B16-F10 (murine melanoma) cells
Assay remarks: sulforhodamine B (SRB) cytotoxicity assay, B16-F10
Format: cell-based
Condition description: GI50 on 3T3 cells divided by GI50 on B16-F10
Reported metric: selectivity index (SI)
Reply with the value as a number alone.

Recorded selectivity index (SI), per entry:
Cc1cc(O)c(C=O)c2c1C(=O)Oc1c(C)c(O)c3c(c1O2)C(OC(C)C)OC3=O (stereo not shown) [compound 6, 8′-O-isopropyl-norstictic acid]	4.48
CCCCCCOC1OC(=O)c2c(O)c(C)c3c(c21)Oc1c(C=O)c(O)cc(C)c1C(=O)O3 (stereo not shown) [compound 5, 8′-O-n-hexyl-norstictic acid]	0.97
Cc1cc(O)c(C=O)c2c1C(=O)Oc1c(C)c(O)c3c(c1O2)C(OC(C)(C)C)OC3=O (stereo not shown) [compound 8, 8′-O-tert-butyl-norstictic acid]	0.42

Incoming: Given the compound CCCCOC1OC(=O)c2c(O)c(C)c3c(c21)Oc1c(C=O)c(O)cc(C)c1C(=O)O3 (stereo not shown) [compound 3, 8′-O-n-butyl-norstictic acid] , what is its reported selectivity index (SI)?
Outgoing: 13.88

Incoming: Lookup CCC(C)OC1OC(=O)c2c(O)c(C)c3c(c21)Oc1c(C=O)c(O)cc(C)c1C(=O)O3 (stereo not shown) [compound 7, 8′-O-sec-butyl-norstictic acid]
Outgoing: 64.4

Incoming: Lookup CCCCCOC1OC(=O)c2c(O)c(C)c3c(c21)Oc1c(C=O)c(O)cc(C)c1C(=O)O3 (stereo not shown) [compound 4, 8′-O-n-pentyl-norstictic acid]
Outgoing: 1.03

Incoming: Lookup COc1cccc2c1C(=O)c1c(O)c3c(c(O)c1C2=O)C[C@@](O)(C(=O)CO)C[C@@H]3O[C@H]1C[C@H](N)[C@H](O)[C@H](C)O1 [Doxorubicin, reference compound]
Outgoing: 1.28

----------
Test system: PC-03 (prostate carcinoma) cells
Assay remarks: sulforhodamine B (SRB) cytotoxicity assay, PC-03
Format: cell-based
Condition description: GI50 on 3T3 cells divided by GI50 on PC-03
Reported metric: selectivity index (SI)
Reply with the value as a number alone.

Recorded selectivity index (SI), per entry:
Cc1cc(O)c(C=O)c2c1C(=O)Oc1c(C)c(O)c3c(c1O2)C(OC(C)(C)C)OC3=O (centres unmarked)	5.0
COc1cccc2c1C(=O)c1c(O)c3c(c(O)c1C2=O)C[C@@](O)(C(=O)CO)C[C@@H]3O[C@H]1C[C@H](N)[C@H](O)[C@H](C)O1 [Doxorubicin, reference compound]	16.0
CCCCCCOC1OC(=O)c2c(O)c(C)c3c(c21)Oc1c(C=O)c(O)cc(C)c1C(=O)O3 (centres unmarked)	7.60
CCCOC1OC(=O)c2c(O)c(C)c3c(c21)Oc1c(C=O)c(O)cc(C)c1C(=O)O3 (centres unmarked)	2.03
CCC(C)OC1OC(=O)c2c(O)c(C)c3c(c21)Oc1c(C=O)c(O)cc(C)c1C(=O)O3 (centres unmarked)	11.30

Incoming: Request: selectivity index (SI), test system PC-03 (prostate carcinoma) cells, entry CCCCOC1OC(=O)c2c(O)c(C)c3c(c21)Oc1c(C=O)c(O)cc(C)c1C(=O)O3 (centres unmarked)
Outgoing: 98.11

Incoming: Lookup CCCCCOC1OC(=O)c2c(O)c(C)c3c(c21)Oc1c(C=O)c(O)cc(C)c1C(=O)O3 (centres unmarked)
Outgoing: 6.53

Incoming: Lookup Cc1cc(O)c(C=O)c2c1C(=O)Oc1c(C)c(O)c3c(c1O2)C(OC(C)C)OC3=O (centres unmarked)
Outgoing: 33.8

----------
Test system: HEP2 (laryngeal carcinoma) cells
Assay remarks: sulforhodamine B (SRB) cytotoxicity assay, HEP2
Format: cell-based
Condition description: Homo sapiens, HEp-2; HEP2 cells, SRB assay; read-out: growth inhibition (GI50)
Exam item: assign class 1 to entries whose GI50 is below 8 µM and class 0 to entries at or above 8 µM. Note that a value of exactly 8 µM receives class 0.

Example cases with answers are listed next.
CCC(C)OC1OC(=O)c2c(O)c(C)c3c(c21)Oc1c(C=O)c(O)cc(C)c1C(=O)O3 (centres unmarked)	class 1
COc1cccc2c1C(=O)c1c(O)c3c(c(O)c1C2=O)C[C@@](O)(C(=O)CO)C[C@@H]3O[C@H]1C[C@H](N)[C@H](O)[C@H](C)O1 [Doxorubicin, reference compound]	class 1
Cc1cc(O)c(C=O)c2c1C(=O)Oc1c(C)c(O)c3c(c1O2)C(OC(C)(C)C)OC3=O (centres unmarked)	class 0

Incoming: Report whether reported GI50 is lower than 8 µM (strictly) for CCCOC1OC(=O)c2c(O)c(C)c3c(c21)Oc1c(C=O)c(O)cc(C)c1C(=O)O3 (centres unmarked)
Outgoing: class 0

----------
Test system: HEP2 (laryngeal carcinoma) cells
Assay remarks: sulforhodamine B (SRB) cytotoxicity assay, HEP2
Format: cell-based
Condition description: Homo sapiens, HEp-2; HEP2 cells, SRB assay; read-out: growth inhibition (GI50)
Consider the following compounds and their measured GI50 readings.
Respond numerically; units are µM and should not be typed.

CCCCCCOC1OC(=O)c2c(O)c(C)c3c(c21)Oc1c(C=O)c(O)cc(C)c1C(=O)O3 (stereo not drawn)	5.96
CCCCOC1OC(=O)c2c(O)c(C)c3c(c21)Oc1c(C=O)c(O)cc(C)c1C(=O)O3 (stereo not drawn)	7.94

Incoming: Given the compound CCCCCOC1OC(=O)c2c(O)c(C)c3c(c21)Oc1c(C=O)c(O)cc(C)c1C(=O)O3 (stereo not drawn) , what is its reported GI50?
Outgoing: 48.2

----------
System: MCF7 (breast carcinoma) cells
Assay remarks: sulforhodamine B (SRB) cytotoxicity assay, MCF7
Format: cell-based
Condition description: Homo sapiens; MCF7 cells, SRB assay; read-out: growth inhibition (GI50)
Reported metric: GI50 (µM)
Respond numerically; units are µM and should not be typed.

Recorded GI50, per entry:
Cc1cc(O)c(C=O)c2c1C(=O)Oc1c(C)c(O)c3c(c1O2)C(OC(C)C)OC3=O (centres unmarked)	59.3
CCCOC1OC(=O)c2c(O)c(C)c3c(c21)Oc1c(C=O)c(O)cc(C)c1C(=O)O3 (centres unmarked)	410
Cc1cc(O)c(C=O)c2c1C(=O)Oc1c(C)c(O)c3c(c1O2)C(OC(C)(C)C)OC3=O (centres unmarked)	64.2
CCC(C)OC1OC(=O)c2c(O)c(C)c3c(c21)Oc1c(C=O)c(O)cc(C)c1C(=O)O3 (centres unmarked)	6.8
CCCCOC1OC(=O)c2c(O)c(C)c3c(c21)Oc1c(C=O)c(O)cc(C)c1C(=O)O3 (centres unmarked)	13.3
COc1cccc2c1C(=O)c1c(O)c3c(c(O)c1C2=O)C[C@@](O)(C(=O)CO)C[C@@H]3O[C@H]1C[C@H](N)[C@H](O)[C@H](C)O1 [Doxorubicin, reference compound]	0.086

Incoming: Request: GI50, test system MCF7 (breast carcinoma) cells, entry CCCCCOC1OC(=O)c2c(O)c(C)c3c(c21)Oc1c(C=O)c(O)cc(C)c1C(=O)O3 (centres unmarked)
Outgoing: 15.5

Incoming: Lookup CCCCCCOC1OC(=O)c2c(O)c(C)c3c(c21)Oc1c(C=O)c(O)cc(C)c1C(=O)O3 (centres unmarked)
Outgoing: 9.53

----------
Consider the following compounds and their measured melting point readings.
Respond numerically; units are °C and should not be typed.

Recorded melting point, per entry:
CCC(C)OC1OC(=O)c2c(O)c(C)c3c(c21)Oc1c(C=O)c(O)cc(C)c1C(=O)O3 (stereo not shown)	170
CCCCOC1OC(=O)c2c(O)c(C)c3c(c21)Oc1c(C=O)c(O)cc(C)c1C(=O)O3 (stereo not shown)	169
CCCCCCOC1OC(=O)c2c(O)c(C)c3c(c21)Oc1c(C=O)c(O)cc(C)c1C(=O)O3 (stereo not shown)	178

Pending compound:
Incoming: Given the compound Cc1cc(O)c(C=O)c2c1C(=O)Oc1c(C)c(O)c3c(c1O2)C(OC(C)C)OC3=O (stereo not shown) , what is its reported melting point?
Outgoing: 185

----------
Tested on: UACC-62 (human melanoma) cells
Assay remarks: sulforhodamine B (SRB) cytotoxicity assay, UACC-62
Assay type: cell-based
Condition description: Homo sapiens; UACC-62 cells, SRB assay; read-out: growth inhibition (GI50)
Reported metric: GI50 (µM)
Respond numerically; units are µM and should not be typed.

Recorded GI50, per entry:
CCC(C)OC1OC(=O)c2c(O)c(C)c3c(c21)Oc1c(C=O)c(O)cc(C)c1C(=O)O3 (centres unmarked)	29.4
CCCCOC1OC(=O)c2c(O)c(C)c3c(c21)Oc1c(C=O)c(O)cc(C)c1C(=O)O3 (centres unmarked)	11.5
CCCCCOC1OC(=O)c2c(O)c(C)c3c(c21)Oc1c(C=O)c(O)cc(C)c1C(=O)O3 (centres unmarked)	37.8
Cc1cc(O)c(C=O)c2c1C(=O)Oc1c(C)c(O)c3c(c1O2)C(OC(C)C)OC3=O (centres unmarked)	6.2
COc1cccc2c1C(=O)c1c(O)c3c(c(O)c1C2=O)C[C@@](O)(C(=O)CO)C[C@@H]3O[C@H]1C[C@H](N)[C@H](O)[C@H](C)O1 [Doxorubicin, reference compound]	0.12
CCCCCCOC1OC(=O)c2c(O)c(C)c3c(c21)Oc1c(C=O)c(O)cc(C)c1C(=O)O3 (centres unmarked)	51.6
Cc1cc(O)c(C=O)c2c1C(=O)Oc1c(C)c(O)c3c(c1O2)C(OC(C)(C)C)OC3=O (centres unmarked)	67.1

Pending compound:
Incoming: Request: GI50, test system UACC-62 (human melanoma) cells, entry CCCOC1OC(=O)c2c(O)c(C)c3c(c21)Oc1c(C=O)c(O)cc(C)c1C(=O)O3 (centres unmarked)
Outgoing: 50
